- MEASUREMENT_NOTES: Oral bioavailability in CD-1 mouse measured at 5 mg/kg for 1 to 24 hrs by HPLC-MS/MS analysis
- Type: ADME, organism-based
- TEST_CONTEXT: in vivo, time 1-24 hrs
ASSAY_METRIC: bioavailability (%)
Your answer should be a plain number; it is taken to be in %.

What measured bioavailability goes with C[C@]1(O)C[C@@H](c2nc(-c3ccc4ccc(-c5ccccc5)nc4c3)c3c(N)nccn32)C1 ?
98

---

- MEASUREMENT_NOTES: AUC (0 to infinity) in CD-1 mouse measured at 5 mg/kg, iv for 1 to 24 hrs by HPLC-MS/MS analysis
- Format: ADME, organism-based
- TEST_CONTEXT: in vivo, time 1-24 hrs
ASSAY_METRIC: AUC(0-inf) (ng·h/mL)
Quick note: give the figure in ng·h/mL, leave out the unit.

Field request: AUC(0-inf) | item: C[C@]1(O)C[C@@H](c2nc(-c3ccc4ccc(-c5ccccc5)nc4c3)c3c(N)nccn32)C1
6950
